Reported residual activity values are given for each entry in this list.
Target: MAPK8 (human) (UniProt P45983)
Sequence (P45983 whole entry, looked up): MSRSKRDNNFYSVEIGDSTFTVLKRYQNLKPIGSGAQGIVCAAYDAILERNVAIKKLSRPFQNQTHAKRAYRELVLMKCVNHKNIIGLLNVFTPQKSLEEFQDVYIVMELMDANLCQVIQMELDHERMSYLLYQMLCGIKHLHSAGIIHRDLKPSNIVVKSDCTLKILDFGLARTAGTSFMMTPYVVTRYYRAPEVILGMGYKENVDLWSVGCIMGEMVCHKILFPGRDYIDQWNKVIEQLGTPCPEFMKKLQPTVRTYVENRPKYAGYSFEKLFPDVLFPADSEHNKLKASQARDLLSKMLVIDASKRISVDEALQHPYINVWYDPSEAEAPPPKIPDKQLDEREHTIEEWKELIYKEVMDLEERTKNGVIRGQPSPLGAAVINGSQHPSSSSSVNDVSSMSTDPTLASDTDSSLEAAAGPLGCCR
Experiment: radiometric filter-binding kinase assay
Settings: compound 1.0 µM
EXPERIMENTAL_ENDPOINT: residual activity (%)

[
  {
    "COMPOUND": "COc1cc(C(=O)N2CCOCC2)c(F)cc1Nc1ncc(C(F)(F)F)c(NC2CC2)n1",
    "RESULT": 83
  },
  {
    "COMPOUND": "CC(C)(C#N)c1ccc(N2C(=O)OCc3cnc4ccc(-c5cnc6ccccc6c5)cc4c32)cc1",
    "RESULT": 106
  },
  {
    "COMPOUND": "Oc1ccc2ccccc2c1SSc1c(O)ccc2ccccc12",
    "RESULT": 99
  },
  {
    "COMPOUND": "Cn1nc(Nc2ccc(F)cc2)c2c(N)ncnc21",
    "RESULT": 112
  },
  {
    "COMPOUND": "Cc1ccc(=O)n(-c2ccccc2)c1",
    "RESULT": 85
  },
  {
    "COMPOUND": "O=C1NC(=S)N[C@@H]1Cc1c[nH]c2ccccc12",
    "RESULT": 83
  },
  {
    "COMPOUND": "C[C@H]1CCCC(=O)CCC/C=C/c2cc(O)cc(O)c2C(=O)O1",
    "RESULT": 88
  },
  {
    "COMPOUND": "NS(=O)(=O)OC[C@@H]1C[C@@H](n2ccc3c(N[C@H]4CCc5ccccc54)ncnc32)C[C@@H]1O",
    "RESULT": 84
  },
  {
    "COMPOUND": "N#Cc1c(C2CCNCC2)cc(-c2c(O)cccc2OCC2CC2)nc1N",
    "RESULT": 110
  },
  {
    "COMPOUND": "COc1ccc2c(c1)c1c3c(c4c5ccccc5n(C)c4c1n2CC(O)CN(C)C)C(=O)NC3=O (stereo unspecified)",
    "RESULT": 99
  },
  {
    "COMPOUND": "CCCCCc1ccc(/C=C/[C@H](O)[C@@H](CO)NC)cc1",
    "RESULT": 94
  },
  {
    "COMPOUND": "O=C(O)c1ccc(-c2c[nH]c3ncc(-c4ccccc4)cc23)cc1C1CCCC1",
    "RESULT": 74
  },
  {
    "COMPOUND": "NC(=O)c1ccc(-c2ccc(Oc3cncc4sc(-c5nn[nH]n5)cc34)cc2)cc1",
    "RESULT": 93
  },
  {
    "COMPOUND": "O=C(NOCC(O)CO)c1ccc(F)c(F)c1Nc1ccc(I)cc1Cl (stereo unspecified)",
    "RESULT": 87
  },
  {
    "COMPOUND": "Cc1cccc(Nc2nn(C)c3ncnc(N)c23)c1",
    "RESULT": 99
  },
  {
    "COMPOUND": "O=C1Nc2nc(-c3c(O)cccc3OCC3CC3)cc(C3CCCNC3)c2CO1 (stereo unspecified)",
    "RESULT": 76
  },
  {
    "COMPOUND": "Nc1cccc2c1CN(C1CCC(=O)NC1=O)C2=O (stereo unspecified)",
    "RESULT": 99
  },
  {
    "COMPOUND": "NC(=O)c1cc(-c2ccnc(NC3CCCCC3)c2)nc(N2CCNCC2)c1",
    "RESULT": 100
  },
  {
    "COMPOUND": "O=C(Nc1ccccc1-c1cn2c(CN3CCNCC3)csc2n1)c1cnc2ccccc2n1",
    "RESULT": 103
  },
  {
    "COMPOUND": "C=C1C(=O)OC2C1CC/C(C)=C/CCC1(C)OC21 (stereo unspecified)",
    "RESULT": 104
  },
  {
    "COMPOUND": "CC1=C(CO)C(=O)O[C@@H]([C@@H](C)[C@H]2CC[C@H]3[C@@H]4C[C@H]5O[C@]56[C@@H](O)C=CC(=O)[C@]6(C)C4CC[C@]23C)C1 (stereo partly specified)",
    "RESULT": 102
  }
]
